# Test system: K562 CRISPRi cells
# assay details: Constant region variant library pooled growth screen, K562
# Assay type: cell-based, human
# test conditions: sgRNA constant region variants; activity relative to the unmodified constant region cr995
Each item that follows carries a reported Mean relative activity.
The answer should be a number; do not append a unit.

>  <molecule>
cr972 (nucleic acid, listed as DNA, chemistry not fully specified) guide: GTTTAAGAGCTAAGCTGGAAACAGCATAGCAAGTTTAAATAAGTGTACTACGTTATCAACCTGAAAAGGTGGCACCGAGTCGGTGCT

>  <Mean relative activity>
0.2767

$$$$
>  <molecule>
cr059 (nucleic acid, listed as DNA, chemistry not fully specified) guide: GGTTAAAAGCTAAGCTGGAAACAGCATAGCAAGTTTAAATAAGGCTAGTCCGTTATCAACTTGAAAAAGTGGCACCGAGTCGGTGCT

>  <Mean relative activity>
0.1106

$$$$
>  <molecule>
cr089 (nucleic acid, listed as DNA, chemistry not fully specified) guide: GTTTATAAGCTAAGCTGGAAACAGCATAGCAAGTTTAAATAAGGCTAGTCCGTTATCAACTTGAAAAAGTGGCACCGAGTCGGTGCT

>  <Mean relative activity>
0.1183

$$$$

Input line: Supply measured Mean relative activity of cr466 (nucleic acid, listed as DNA, chemistry not fully specified) guide: GTTTAAGAGCTAAGCTGGAAACAGCATAGCAAGTTTAAAAAAGGCTAGTCCGTTATCAACTTGAAAAAGTGGCACCGAGTCGGTGCT in your reply.
Output line: 0.3153

Input line: Fill in Mean relative activity for record cr683 (nucleic acid, listed as DNA, chemistry not fully specified) guide: GTTTAAGAGCTAAGCTGGAAACAGCATAGCAAGTTTAAATAAGGCTAGTTCGTTATGAACTTGAAAAAGTGGCACCGAGTCGGTGCT
Output line: 0.1568

Input line: Let me know recorded Mean relative activity for cr395 (nucleic acid, listed as DNA, chemistry not fully specified) guide: GTTTAAGAGCTAAGCTGGAAACAGCATAGCAAGTTTAAATATGGCTAGTCCGTTATCAACTTGAAAAAGTAGCACCGAATCGGTGCT , thanks.
Output line: 0.1397
